// reported Ki for each item listed
Assay Target: Adenosine receptor A2a (Homo sapiens, UniProt P29274)
Sequence (P29274 whole entry): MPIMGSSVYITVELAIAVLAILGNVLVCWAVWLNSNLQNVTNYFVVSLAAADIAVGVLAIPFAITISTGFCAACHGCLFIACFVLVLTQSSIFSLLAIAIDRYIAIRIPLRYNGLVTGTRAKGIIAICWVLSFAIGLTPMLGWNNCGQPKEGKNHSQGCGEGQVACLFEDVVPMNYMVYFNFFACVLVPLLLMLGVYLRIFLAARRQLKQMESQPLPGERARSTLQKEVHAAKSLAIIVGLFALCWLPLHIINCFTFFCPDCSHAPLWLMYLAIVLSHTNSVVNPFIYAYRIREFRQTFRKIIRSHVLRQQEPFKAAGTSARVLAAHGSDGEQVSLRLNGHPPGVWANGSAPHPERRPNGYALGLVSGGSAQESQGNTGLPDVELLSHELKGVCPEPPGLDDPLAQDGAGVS
Measurement Description: biochemical
Assay type: cell-based, CHO
Stated Conditions: read-out: Ki

Please review the following examples before continuing.
CCCCc1nc2[nH]cnc2c2nc(-c3ccc(C(F)(F)F)cc3)nn12 ... > 10 µM
OC[C@H]1O[C@@H](n2cnc3c(N[C@@H]4C[C@H]4c4cccc(C(F)(F)F)c4)ncnc32)[C@H](O)[C@@H]1O ... 2.37 µM
COc1ccn2c(c1)nc1c2c(=O)n(CC2CC2)c(=O)n1Cc1ccc(C)cc1 ... > 10 µM

Which measured Ki value corresponds to CCCN1C(=O)N2CCN=C2c2[nH]c(-c3ccc(Br)cc3)nc21 ? 0.47 µM

And OC[C@H]1O[C@@H](n2cnc3c(C(F)(F)F)nc(NCCc4ccccc4)nc32)[C@H](O)[C@@H]1O ? > 10 µM

And Cc1ccc(-c2nc(NC(=O)Nc3ccc(F)cc3)c3nnn(Cc4ccccc4F)c3n2)cc1 ? 8.05 µM

And CNc1nc(-n2cc(-c3ccccn3)cn2)nc2c1ncn2[C@@H]1O[C@H](CO)[C@@H](O)[C@H]1O ? > 5 µM

And OC[C@H]1O[C@@H](n2cnc3c(NCc4cccc(I)c4)nc(Cl)nc32)[C@H](O)[C@@H]1F ? > 10 µM

And CC[C@@H]1CN2C(=O)N(C)c3nc(-c4ccccc4)[nH]c3C2=N1 ? > 1.28 µM
